FYI, the data here is from ChEMBL document CHEMBL3044830.

system: Shigella sp.; assay: Antibacterial activity against Shigella typhi assessed as concentration required to obtain a zone of inhibition of 5 mm after 18 to 24 hr by disc diffusion method; assay type: functional
measurement_name: Activity (µg/mL)
The reply should contain only the number, in µg/mL.

API: value(readout= Activity, system= Shigella sp., query= CCCCCCCC(=O)N1CCN(c2c(F)cc3c(=O)c(C(=O)O)cn(C4CC4)c3c2OC)CC1C.O (stereo unspecified) )
8

API: value(readout= Activity, system= Shigella sp., query= COc1c(N2CCN(C(=O)c3ccccc3)C(C)C2)c(F)cc2c(=O)c(C(=O)O)cn(C3CC3)c12.O (stereo unspecified) )
8

API: value(readout= Activity, system= Shigella sp., query= COc1c(N2CCNC(C)C2)c(F)cc2c(=O)c(C(=O)O)cn(C3CC3)c12 (stereo unspecified) [GATIFLOXACIN] )
8

API: value(readout= Activity, system= Shigella sp., query= COc1c(N2CCN(C(C)=O)C(C)C2)c(F)cc2c(=O)c(C(=O)O)cn(C3CC3)c12.O (stereo unspecified) )
9

Continuing:
API: value(readout= Activity, system= Shigella sp., query= C[C@@H]1CN(c2c(F)c(N)c3c(=O)c(C(=O)O)cn(C4CC4)c3c2F)C[C@H](C)N1 [SPARFLOXACIN] )
9

API: value(readout= Activity, system= Shigella sp., query= CO/N=C1\CN(c2nc3c(cc2F)c(=O)c(C(=O)O)cn3C2CC2)CC1CN.CS(=O)(=O)O (stereo unspecified) [GEMIFLOXACIN MESYLATE] )
8

###

test: Antibacterial activity against Hofmanni bacterium assessed as concentration required to obtain a zone of inhibition of 10 mm after 18 to 24 hr by disc diffusion method
Consider the following compounds and their measured Activity readings.
The reply should contain only the number, in µg/mL.

Known Activity results, listed for orientation:
Fill blank: measured Activity of the compound COc1c(N2CCNC(C)C2)c(F)cc2c(=O)c(C(=O)O)cn(C3CC3)c12 (stereo unspecified) is ____.
13

Fill blank: measured Activity of the compound COc1c(N2CCN(C(=O)c3ccccc3)C(C)C2)c(F)cc2c(=O)c(C(=O)O)cn(C3CC3)c12.O (stereo unspecified) is ____.
12

Fill blank: measured Activity of the compound C[C@@H]1CN(c2c(F)c(N)c3c(=O)c(C(=O)O)cn(C4CC4)c3c2F)C[C@H](C)N1 is ____.
13

Fill blank: measured Activity of the compound CO/N=C1\CN(c2nc3c(cc2F)c(=O)c(C(=O)O)cn3C2CC2)CC1CN.CS(=O)(=O)O (stereo unspecified) [GEMIFLOXACIN MESYLATE] is ____.
7

Fill blank: measured Activity of the compound CCCCCCCC(=O)N1CCN(c2c(F)cc3c(=O)c(C(=O)O)cn(C4CC4)c3c2OC)CC1C.O (stereo unspecified) is ____.
11

Continuing:
Fill blank: measured Activity of the compound COc1c(N2CCN(C(C)=O)C(C)C2)c(F)cc2c(=O)c(C(=O)O)cn(C3CC3)c12.O (stereo unspecified) is ____.
12

###

assay: Antibacterial activity against Hofmanni bacterium assessed as zone of inhibition after 18 to 24 hr by disc diffusion method relative to gatifloxacin
Assign YES to entries whose inhibition zone (IZ) meets or exceeds 90%; assign NO to the rest.

// known answers, use as guide
Assess whether reported inhibition zone (IZ) for COc1c(N2CCN(C(=O)c3ccccc3)C(C)C2)c(F)cc2c(=O)c(C(=O)O)cn(C3CC3)c12.O (stereo not given) sits at 90% or higher.
NO

Assess whether reported inhibition zone (IZ) for C[C@@H]1CN(c2c(F)c(N)c3c(=O)c(C(=O)O)cn(C4CC4)c3c2F)C[C@H](C)N1 sits at 90% or higher.
YES

Assess whether reported inhibition zone (IZ) for CO/N=C1\CN(c2nc3c(cc2F)c(=O)c(C(=O)O)cn3C2CC2)CC1CN.CS(=O)(=O)O (stereo not given) [GEMIFLOXACIN MESYLATE] sits at 90% or higher.
NO

Please find the next compound below.
Assess whether reported inhibition zone (IZ) for COc1c(N2CCN(C(C)=O)C(C)C2)c(F)cc2c(=O)c(C(=O)O)cn(C3CC3)c12.O (stereo not given) sits at 90% or higher.
YES

###

tested on: Proteus mirabilis; assay: Antibacterial activity against Proteus mirabilis assessed as zone of inhibition at 5 to 40 ug/ml after 18 to 24 hr by disc diffusion method relative to gatifloxacin; type: functional
measurement_name: inhibition zone (IZ) (%)
The reply should contain only the number, in %.

Fill blank: measured inhibition zone (IZ) of the compound COc1c(N2CCN(C(=O)c3ccccc3)C(C)C2)c(F)cc2c(=O)c(C(=O)O)cn(C3CC3)c12.O (stereo not given) is ____.
78.8

Fill blank: measured inhibition zone (IZ) of the compound CCCCCCCC(=O)N1CCN(c2c(F)cc3c(=O)c(C(=O)O)cn(C4CC4)c3c2OC)CC1C.O (stereo not given) is ____.
92

###

system: T-cell; test: Anti-inflammatory activity in Homo sapiens (human) T lymphocytes assessed as inhibition of PHA-induced [3H] thymidine uptake at 12.5 ug/ml incubated for 72 hr prior to [3H]thymidine addition measured after 18 hr by liquid scintillation method; assay type: functional
measurement_name: inhibition at 12.5 µg/mL (%)
The reply should contain only the number, in %.

API: value(readout= inhibition at 12.5 µg/mL, system= T-cell, query= CCCCCCCC(=O)N1CCN(c2c(F)cc3c(=O)c(C(=O)O)cn(C4CC4)c3c2OC)CC1C.O (centres undefined) )
-41.5

API: value(readout= inhibition at 12.5 µg/mL, system= T-cell, query= COc1c(N2CCN(C(C)=O)C(C)C2)c(F)cc2c(=O)c(C(=O)O)cn(C3CC3)c12.O (centres undefined) )
-35.7

API: value(readout= inhibition at 12.5 µg/mL, system= T-cell, query= COc1c(N2CCN(C(=O)c3ccccc3)C(C)C2)c(F)cc2c(=O)c(C(=O)O)cn(C3CC3)c12.O (centres undefined) )
-41.5

Please look at the following molecule next.
API: value(readout= inhibition at 12.5 µg/mL, system= T-cell, query= COc1c(N2CCNC(C)C2)c(F)cc2c(=O)c(C(=O)O)cn(C3CC3)c12 (centres undefined) [GATIFLOXACIN] )
-97.9

###

Consider the following compounds and their measured Activity readings.
system: Proteus mirabilis; assay: Antibacterial activity against Proteus mirabilis assessed as concentration required to obtain a zone of inhibition of 5 mm after 18 to 24 hr by disc diffusion method; type: functional
The reply should contain only the number, in µg/mL.

Known Activity results, listed for orientation:
Fill blank: measured Activity of the compound COc1c(N2CCN(C(C)=O)C(C)C2)c(F)cc2c(=O)c(C(=O)O)cn(C3CC3)c12.O (stereo unspecified) is ____.
9

Fill blank: measured Activity of the compound CCCCCCCC(=O)N1CCN(c2c(F)cc3c(=O)c(C(=O)O)cn(C4CC4)c3c2OC)CC1C.O (stereo unspecified) is ____.
11

Fill blank: measured Activity of the compound COc1c(N2CCN(C(=O)c3ccccc3)C(C)C2)c(F)cc2c(=O)c(C(=O)O)cn(C3CC3)c12.O (stereo unspecified) is ____.
9

Fill blank: measured Activity of the compound C[C@@H]1CN(c2c(F)c(N)c3c(=O)c(C(=O)O)cn(C4CC4)c3c2F)C[C@H](C)N1 is ____.
10

Fill blank: measured Activity of the compound CO/N=C1\CN(c2nc3c(cc2F)c(=O)c(C(=O)O)cn3C2CC2)CC1CN.CS(=O)(=O)O (stereo unspecified) [GEMIFLOXACIN MESYLATE] is ____.
10

Please look at the following compound next.
Fill blank: measured Activity of the compound COc1c(N2CCNC(C)C2)c(F)cc2c(=O)c(C(=O)O)cn(C3CC3)c12 (stereo unspecified) is ____.
9

###

system: Staphylococcus aureus; experiment: Antibacterial activity against methicillin-resistant Staphylococcus aureus assessed as zone of inhibition at 5 to 40 ug/ml after 18 to 24 hr by disk diffusion method relative to gatifloxacin; assay type: functional
Assign true (1) to entries whose inhibition zone (IZ) meets or exceeds 80%; assign false (0) to the rest.

// known answers, use as guide
Assess whether reported inhibition zone (IZ) for COc1c(N2CCN(C(C)=O)C(C)C2)c(F)cc2c(=O)c(C(=O)O)cn(C3CC3)c12.O (stereo not given) sits at 80% or higher.
true (1)

Assess whether reported inhibition zone (IZ) for CCCCCCCC(=O)N1CCN(c2c(F)cc3c(=O)c(C(=O)O)cn(C4CC4)c3c2OC)CC1C.O (stereo not given) sits at 80% or higher.
false (0)

Assess whether reported inhibition zone (IZ) for COc1c(N2CCN(C(=O)c3ccccc3)C(C)C2)c(F)cc2c(=O)c(C(=O)O)cn(C3CC3)c12.O (stereo not given) sits at 80% or higher.
true (1)

Assess whether reported inhibition zone (IZ) for C[C@@H]1CN(c2c(F)c(N)c3c(=O)c(C(=O)O)cn(C4CC4)c3c2F)C[C@H](C)N1 [SPARFLOXACIN] sits at 80% or higher.
false (0)

Continuing:
Assess whether reported inhibition zone (IZ) for CO/N=C1\CN(c2nc3c(cc2F)c(=O)c(C(=O)O)cn3C2CC2)CC1CN.CS(=O)(=O)O (stereo not given) [GEMIFLOXACIN MESYLATE] sits at 80% or higher.
false (0)
